These data points were gathered from paper PMC5540273.

Kindly supply the reported %Inh values for the records listed here.
# System: RIPK1;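 further: KINOMEscan kinase panel screen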
# Measurement parameters: concentration: 1 μM, replicates: in singlicate; n = 1
Write the answer as a number in %, unit excluded.

Request: What does the record list as %Inh for O=c1cc(N2CCOCC2)nc2n(Cc3cccc(Cl)c3Cl)c(C3CC3)nn12 ?
Response: 0

Request: What about this molecule? Cc1cn2c(=O)cc(N3CCOCC3)nc2n1Cc1cccc(Cl)c1Cl
Response: 0

Request: What about this molecule? Fc1ccc(-c2ncn(CCCN3CCOCC3)c2-c2ccccn2)cc1
Response: 0

Request: What about this molecule? O=C1Cc2cc(Nc3nc(NCc4cccc(S(=O)(=O)C(F)(F)F)c4)ncc3C(F)(F)F)ccc2N1
Response: 2

Request: What about this molecule? Cn1cc(-c2ccc3c(c2)CCN3C(=O)Cc2ccccc2Cl)c2c(N)ncnc21
Response: 0

Request: What about this molecule? c1ccc(-c2n[nH]cc2-c2ccnc3ccccc23)nc1
Response: 20

Request: What about this molecule? O=C(NOCC1CC1)c1ccc(F)c(F)c1Nc1ccc(I)cc1Cl
Response: 0

Request: What about this molecule? O=C(NCCNc1ccnc(Nc2ccc(F)cc2)n1)Nc1ccccc1F
Response: 0

Request: What about this molecule? COc1ccc(COc2cc(-n3cnc4ccccc43)sc2C(N)=O)cc1
Response: 4

Request: What about this molecule? CN1c2ccc(NCc3ccc(F)cc3)cc2-c2c(cnn2C)S1(=O)=O
Response: 3

Request: What about this molecule? Cc1nnc(-c2ccc(C)c(-c3ccc(C(=O)Nc4ccc(NS(C)(=O)=O)cc4)cc3)c2)o1
Response: 36

Request: What about this molecule? N#Cc1c(N2CCOCC2)sc(-c2ccn[nH]2)c1-c1ccc(Cl)cc1
Response: 6

Request: What about this molecule? NS(=O)(=O)c1cccc(-c2ccc3nccc(-c4cccc(S(N)(=O)=O)c4)c3c2)c1
Response: 0

Request: What about this molecule? Nc1nccc(-c2c(-c3ccc(F)cc3)ncn2C2CCN(CC(F)(F)F)CC2)n1
Response: 0

Request: What about this molecule? NCC(NC(=O)c1cc(-c2cn[nH]c2)c(-c2ccnc3[nH]ccc23)s1)c1ccccc1.O=C(O)C(F)(F)F.O=C(O)C(F)(F)F (stereo not drawn)
Response: 19

Request: What about this molecule? Cl.Oc1cccc(Nc2ccnc3cc(-c4ccncc4)ccc23)c1
Response: 15

Request: What about this molecule? Cc1c(Cn2c(C)nn3c(=O)cc(N4CCOC(C)C4)nc23)cccc1C(F)(F)F (stereo not drawn)
Response: 0

Request: What about this molecule? Fc1ccc(-c2nn3c(OCC(F)(F)F)cccc3c2-c2ccncc2)cc1
Response: 0

Request: What about this molecule? COCCNC(=O)c1ccc(-c2cc(C(=O)NC3CC3)cc(F)c2C)cc1
Response: 0

Request: What about this molecule? Cc1ccc(NC(=O)c2ccnc(N3CCN(C)CC3)c2)cc1-c1ccc(C(=O)NCC2CC2)cc1
Response: 0

Request: What about this molecule? COc1cc(Nc2nccc(N3CCC(NC(=O)c4cccc(NC(C)=O)c4)C3)n2)cc(OC)c1OC (stereo not drawn)
Response: 0

Request: What about this molecule? Cc1c2ccc(N(C)c3ccnc(Nc4cccc(S(N)(=O)=O)c4)n3)cc2nn1Cc1ccccc1.Cl.Cl
Response: 36

Request: What about this molecule? COc1cc2c(cc1OC[C@@H](O)CO)ncc1c3ccc(C#N)cc3[nH]c21
Response: 0

Request: What about this molecule? CN(C1=C(c2ccccc2)C(=O)NC1=O)c1ccccc1
Response: 30

Request: What about this molecule? CN(C(=O)c1ccc(-c2cc(-c3c[nH]nc3-c3ccccn3)ccn2)cc1)C1CCOCC1
Response: 0

Request: What about this molecule? Cc1cccc(Cn2ccn3c(=O)cc(N4CCOCC4)nc23)c1
Response: 26

Request: What about this molecule? O=C1NC(=O)C(N2CCc3ccccc32)=C1c1cccc(Cl)c1
Response: 0

Request: What about this molecule? O=C(c1ccc(-c2cc(-c3c[nH]nc3-c3ccccn3)ccn2)cc1)N1CCOCC1
Response: 0

Request: What about this molecule? CCn1cnc2c(N)ncnc21
Response: 11

Request: What about this molecule? O=c1cc(N2CCOCC2)nc2n(Cc3cccc4ccccc34)ccn12
Response: 0

Request: What about this molecule? Cc1nnc(-c2ccc3ncc(-c4ccc(S(C)=O)cc4)n3c2)o1 (stereo not drawn)
Response: 0

Request: What about this molecule? O=C(NCCCN1CCOCC1)c1cccc(Nc2nccc(Nc3ccc(Oc4ccccc4)cc3)n2)c1
Response: 24

Request: What about this molecule? COc1ccc(S(=O)(=O)NC2CCN(c3cc(C)nc(Nc4cccc(C#N)c4)n3)CC2)cc1.O=C(O)C(F)(F)F
Response: 5

Request: What about this molecule? Cc1ccc(C(=O)NCC(N)=O)cc1-n1c(C)cc(OCc2ccc(F)cc2F)c(Br)c1=O
Response: 13

Request: What about this molecule? CCc1nc(-c2cccc(C)c2)c(-c2ccnc(NCc3ccccc3)c2)s1
Response: 0

Request: What about this molecule? CNc1ncnc2[nH]ncc12
Response: 0
